Candida parapsilosis IFO 1396: recorded MIC for assorted compounds
valueKind: MIC

CC1(C)CC[C@@H](c2ccc(O)cc2)C[C@@]1(O)Cn1ccnc1 (relative stereo): 200 µg/mL
CC1(C)CCC(c2ccc(Cl)cc2)CC1(O)Cn1ccnc1 (racemic): > 100 µg/mL
OC1(Cn2ccnc2)CCCC(c2ccc(F)cc2)C1 (stereo not shown) [Compound C, reference compound]: > 400 µg/mL
CC1(C)CCC(c2ccc(F)cc2)CC1(O)Cn1ccnc1 (racemic): 50 µg/mL

====

Aspergillus fumigatus IFO 9733: recorded MIC for assorted compounds
valueKind: MIC

CC1(C)CCC(c2ccc(Cl)cc2)CC1(O)Cn1ccnc1 (racemic): 100 µg/mL
CC1(C)CC[C@@H](c2ccc(O)cc2)C[C@@]1(O)Cn1ccnc1 (relative stereo): 200 µg/mL
OC1(Cn2ccnc2)CCCC(c2ccc(F)cc2)C1 (stereo not shown) [Compound C, reference compound]: > 400 µg/mL
CC1(C)CCC(c2ccc(F)cc2)CC1(O)Cn1ccnc1 (racemic): 50 µg/mL

====

Candida albicans IFO 1060: recorded MIC for assorted molecules
valueKind: MIC (µg/mL)

CC1(C)CCC(c2ccc(Cl)cc2)CC1(O)Cn1ccnc1 (racemic) [Compound 2]: 50
CC1(C)CCC(c2ccc(F)cc2)CC1(O)Cn1ccnc1 (racemic) [Compound 1]: 50
OC1(Cn2ccnc2)CCCC(c2ccc(F)cc2)C1 (stereo not shown) [Compound C, reference compound]: 200
CC1(C)CC[C@@H](c2ccc(O)cc2)C[C@@]1(O)Cn1ccnc1 (relative stereo) [Compound 3]: 50
